Some sequences, each annotated with its measured PBM binding z-score.
Tested on: PPARg:RXRa 270nM:90nM, anti-RXR (NR concentration 270 nM, RXRa partner concentration 90 nM)
experiment: PBM binding z-score (relative to random genomic background probes); higher = stronger binding; sequences stand for … in GC…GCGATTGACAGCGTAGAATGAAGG
Please give the numeric answer without any surrounding text.

// below: answered sequences
TCATTTAGGTAATACAGGTGAAAGTCGGCATCTA; 2.92
TCTTGTAGATCAAGGAGGTTAAGAAAGCCTGAGT; 1.44
ACAGACAGGTGAGCGAAGGTAACTCAGCTGGACG; -0.0383
ACTATTAGTTGAGACGAGGGCAACCTATAGGTTG; -0.0542
ATCTCTAGCTAACCAAGTTCAGTGAATGCCGAAC; -0.251

### Prompt # lookup: PBM binding z-score of `CCTTACGGGTCAAGGTTATAGCACGGGTGGTACG`
### Response 4.69

====

System: PPARg:RXRa (NR concentration 180 nM, RXRa partner concentration 90 nM)
experiment: PBM binding z-score (relative to random genomic background probes); higher = stronger binding; sequences stand for … in GC…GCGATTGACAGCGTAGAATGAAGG
property: PBM binding z-score
Please give the numeric answer without any surrounding text.

// below: answered sequences
CCTACTGGGCCATCAGGCCATTGATATCAACGTT; 1.16
CCTACTGGGCCATTCAGAGGTCATAGATCATATG; 2.65
CCTAGCAGGTCAGGGTCACTCAAGCATTTCGCTT; 3.59

### Prompt Any idea what PBM binding z-score came out for `ATCGAAAGCTCGTGAGGTGAGTATACAGAAAGGC` on PPARg:RXRa (NR concentration 180 nM, RXRa partner concentration 90 nM)?
### Response 0.416

====

Some sequences, each annotated with its measured PBM binding z-score.
Tested on: PPARg:RXRa 270nM:90nM, anti-RXR (NR concentration 270 nM, RXRa partner concentration 90 nM)
experiment: PBM binding z-score (relative to random genomic background probes); higher = stronger binding; sequences stand for … in GC…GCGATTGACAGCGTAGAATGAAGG
Please give the numeric answer without any surrounding text.

GCGACTGGCGCAAAGCAGGTTACCATAAGGTTGG; -0.247
TTACCAAGGTGAAGGTCGTTGAGCCCTCTGTAGA; 4.43

### Prompt # lookup: PBM binding z-score of `CCTTACGGGTCATTGACAGGTTATAGCATTTGGA`
### Response 4.06

====

Some sequences, each annotated with its measured PBM binding z-score.
System: RARa:RXR (NR concentration 270 nM, RXRa partner concentration 90 nM)
experiment: PBM binding z-score (relative to random genomic background probes); higher = stronger binding; sequences stand for … in GC…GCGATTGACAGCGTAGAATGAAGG
Please give the numeric answer without any surrounding text.

// below: answered sequences
GTATCAAGGTGAATAGGTCGTTGATGAGTAGGCG; 2.01
TAGCCTAGGTCAGATCGGGCCAGTTTACGCTATA; 0.463
GATTCAGGGTCAAGGCCAGAGTACGCGTATTGAT; 5.58
TTACCGAGGTGAAGGTCGTTGATCCCTCTGTAGA; 1.84
TCTCGAAGGACACGAAAGGTCAGAGCTCGACATC; 4.04
CCTGGCAGGCCAATCTGGGTCACTCAAGGCTTGA; 1.11

Query sequence follows.
### Prompt # lookup: PBM binding z-score of `ACTATTTGTTGAGACGAGGGCAACCGATAGGTTG`
### Response 0.391

====

System: RXRa homodimer (NR concentration 180 nM)
experiment: PBM binding z-score (relative to random genomic background probes); higher = stronger binding; sequences stand for … in GC…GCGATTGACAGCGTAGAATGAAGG
Some sequences, each annotated with its measured PBM binding z-score.
Please give the numeric answer without any surrounding text.

GGAACGAGGGCAAGTTGATGGCAGAGTTTGATGG; 1.05
CCTAGGAGGACAACAGGAGGTCAGAGCTGCCAGA; 2.25
CCGACTGGGGCAAGGTTACCGTAACGCACAGCCA; 1.04
CCTAGCAGACCAGGGTCACTCAAGCATTTCGCTT; 3.24
CCTCGGAGGACAGACGGTCAGAGCTGTCCGCTTT; -0.87

### Prompt # lookup: PBM binding z-score of `CCGACTGGGGCAGAAAGGTTACCTTACCATCCGG`
### Response 1.28

### Prompt # lookup: PBM binding z-score of `AGAATGAGGTTCTTAAGATCAGGGAATTGCGGTC`
### Response -0.00148

### Prompt # lookup: PBM binding z-score of `ATCTCTAGGTCAGACTCAGTTCAGTGAAGAACGC`
### Response 1.67

====

System: PPARg homodimer (NR concentration 180 nM)
experiment: PBM binding z-score (relative to random genomic background probes); higher = stronger binding; sequences stand for … in GC…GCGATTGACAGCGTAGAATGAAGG
property: PBM binding z-score
Please give the numeric answer without any surrounding text.

### Prompt # lookup: PBM binding z-score of `ACTACCAGGCCAAGGGTCACTCAAGATTAGTCCG`
### Response 2.3

### Prompt # lookup: PBM binding z-score of `AATACAGGGTCACTAGGACAGAGTAGGTACGAAT`
### Response 2.54

### Prompt # lookup: PBM binding z-score of `TGAATGAGGTTATAAGATCATGGAACGTTGCAAA`
### Response -0.119

### Prompt # lookup: PBM binding z-score of `TCTCGGTGGACACGAAGGTCAGAGCTTTCCAGAG`
### Response 0.842

====

System: LXRa homodimer (NR concentration 270 nM)
experiment: PBM binding z-score (relative to random genomic background probes); higher = stronger binding; sequences stand for … in GC…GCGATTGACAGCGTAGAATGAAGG
Param threshold (-0.04) applies to PBM binding z-score; output yes when value >= threshold, no when value < threshold.

GGAACGAAGGCATTCGAGTTGATAGCATGGCGAT; no
ACTCGGAGGACAAAGGTCTGAGCTACGCCAGTGA; no
TCTTGTAGATCAAAGGGTAAGAAAGCCGAAGCCT; no
CCAGACAGGTGAAAGGTAAATCAGTCTGGTACGC; no
ACTAGTTTGTCAGCTGAGGTCACACACAATTCGG; yes

### Prompt For this sequence, is measured PBM binding z-score -0.04 or higher? `GGAACGAGGGCAAGTTGATCGCAGAGTTTGATGG`
### Response no

### Prompt For this sequence, is measured PBM binding z-score -0.04 or higher? `TCATATAGGTAAAGGTGAAAGTCGAACGATATGA`
### Response yes

====

Test system: PPARg DBDmut IVT, anti-PPARg (DBD mutation: PPARg1 K132A/R137A, NR concentration 270 nM)
experiment: PBM binding z-score (relative to random genomic background probes); higher = stronger binding; sequences stand for … in GC…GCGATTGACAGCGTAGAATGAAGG
Param threshold (-0.4) applies to PBM binding z-score; output 1 when value >= threshold, 0 when value < threshold.

Recorded results for 5 sequences are shown here.
CGTCCAAGGTCGGCAGGTCAGTGAAAGCGACGTG; 0
TCTGGGAGGACACGAAAGGTCAGAGCTCGACATC; 0
CCAGACAGGTGAAAGGAAACTCAGTCTGGTACGC; 0
TAATATAGGTAAAAGGTGAAAGTCGGTGTGGTAA; 1
ATAGGTAGGTTATCGGGTCATTCAGTTTGCGCAT; 1

Turning now to a further sequence:
### Prompt For this sequence, is measured PBM binding z-score -0.4 or higher? `TCGAGTAGGTTAGTCGGGGCCTTCAGCCAACATA`
### Response 0

====

Tested on: PXR:RXRa (NR concentration 270 nM, RXRa partner concentration 90 nM)
experiment: PBM binding z-score (relative to random genomic background probes); higher = stronger binding; sequences stand for … in GC…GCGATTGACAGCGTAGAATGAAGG
Param threshold (0.7) applies to PBM binding z-score; output true (1) when value >= threshold, false (0) when value < threshold.

Recorded results for 5 sequences are shown here.
GCGACTGGGGCATCTGCAGGTTACCATAACTTAA; false (0)
ATCTCTAGGTAACCAAGTTCAGGGAATGCCGAAC; true (1)
CTACCAAGGTGAACAAGGTCGTTGAGTACTATTC; true (1)
TCACACAGGTGAAGGTAACTCAGGTACGCAGTCG; false (0)
TAGCATAGGTCATTGGGCCAGTATAGTACGCATC; true (1)

Turning now to a further sequence:
### Prompt For this sequence, is measured PBM binding z-score 0.7 or higher? `CCTAGCAGGCCAGGGTCAGTCAAGCATTTCGCTT`
### Response true (1)

meta.source: the supplement of paper PMC6555819
